# Test Name: Confirmatory qHTS for small molecule stabilizers of the endoplasmic reticulum resident proteome: Secreted ER Calcium Modulated Protein (SERCaMP) assay (AID 1508628); note: nearly all actives have a fitted effect of over 40% in size
# Measurement Parameters: SERCaMP secreted luciferase ER calcium/proteostasis reporter; series mostly up to 76.3 µM
Inconclusive results are not listed. The source made the active and inactive calls. Calls come from the whole dose curve; as a rule, active = well fitted inhibition curve with a large enough effect; inconclusive = small, poorly fitted or top-dose-only effect; inactive = no such curve, though single readings can be large or run the other way.
Returns: one label drawn from active, inactive

Field: outcome | Entry: C=C1CCC[C@]2(C)C[C@H]3OC(=O)[C@H](CNCCc4ccccc4OC)C3CC12 (stereo partly specified) inactive

Field: outcome | Entry: `O=c1cnc2cnc(N3CCNCC3)nc2n1Cc1cccs1` active

Field: outcome | Entry: `CN1CCN(c2nc(-c3ccccc3C(F)(F)F)nc3ccccc23)CC1` active

Field: outcome | Entry: `COc1cccc(Cn2c(=O)c(C)nc3cnc(N4CCNCC4)nc32)c1` active

Field: outcome | Entry: `O=c1c(CCc2ccccc2)nc2cnc(N3CCNCC3)nc2n1CCc1ccccc1` inactive

Field: outcome | Entry: `Cc1ccc(P(=O)(CSC(=N)N)c2ccc(C)cc2)cc1` inactive

###

# Test Name: qHTS Assay for Lipid Storage Modulators (AID 1519); note: % is set by controls: 0 for no effect and ±100 for the full control effect
# Measurement Parameters: Drosophila S3 cells, BODIPY lipid droplet/cell ratio, laser cytometry; at 57.5 µM (top of the series); cells loaded with oleic acid
Results filed as inconclusive are left out.
Please respond with reported activity change, negative = inhibition for every item in the list.
Report only the number, with the unit % understood.

Note down activity change, negative = inhibition recorded for `O=c1c(-c2ccccc2)nc2cnc(N3CCOCC3)nc2n1C1CC1` -1.42

Note down activity change, negative = inhibition recorded for `CC(=O)N1CCC2(CCN(Cc3ccncc3)CC2)CC1` 2.82

Note down activity change, negative = inhibition recorded for `Cc1cnc(CNc2ncnc3ccc(-c4ccoc4)cc23)cn1` 0.59

Note down activity change, negative = inhibition recorded for `Cc1nc2cnc(N3CCOCC3)nc2n(Cc2ccc(F)cc2)c1=O` 2.61

Note down activity change, negative = inhibition recorded for `Cc1noc(C)c1C(=O)N1CCC[C@@]2(CCN(c3ncccn3)C2)C1` -1.94

Note down activity change, negative = inhibition recorded for `CN(C)C(=O)c1ccc(-c2ccc3ncnc(N(C)C)c3c2)cc1` 4.12

Note down activity change, negative = inhibition recorded for `NCCn1c(=O)c(CCc2ccccc2)nc2cncnc21` 4.81

Note down activity change, negative = inhibition recorded for `COCCNc1nc(-c2ccccc2OC)nc2ccccc12` 6.78

Note down activity change, negative = inhibition recorded for `COc1cccc(Nc2ncc3nc(-c4cn(C)c5ccccc45)c(=O)n(CCC#N)c3n2)c1` 2.44

###

# Target Entity: Luciferin 4-monooxygenase (Photinus pyralis) (UniProt P08659)
# Sequence (P08659 whole entry, looked up): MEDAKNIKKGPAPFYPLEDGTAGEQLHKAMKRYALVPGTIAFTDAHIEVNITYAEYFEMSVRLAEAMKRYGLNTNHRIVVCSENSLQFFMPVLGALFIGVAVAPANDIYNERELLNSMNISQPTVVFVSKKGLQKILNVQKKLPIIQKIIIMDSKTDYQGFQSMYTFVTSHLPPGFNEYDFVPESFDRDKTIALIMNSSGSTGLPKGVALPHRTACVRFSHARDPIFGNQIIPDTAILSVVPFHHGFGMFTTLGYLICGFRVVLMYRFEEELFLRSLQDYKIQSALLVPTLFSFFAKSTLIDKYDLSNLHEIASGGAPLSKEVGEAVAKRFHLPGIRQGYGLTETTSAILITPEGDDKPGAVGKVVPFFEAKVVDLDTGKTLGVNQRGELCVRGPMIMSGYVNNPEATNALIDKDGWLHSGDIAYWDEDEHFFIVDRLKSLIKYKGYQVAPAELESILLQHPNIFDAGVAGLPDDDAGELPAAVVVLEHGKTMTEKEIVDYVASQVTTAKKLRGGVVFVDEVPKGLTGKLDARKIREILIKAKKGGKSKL
# Test Name: Firefly luciferase counterscreen qHTS: Assay Interference Panel against the NCATS CANVASS Library (AID 1347363)
# Measurement Parameters: purified firefly luciferase, luminescence inhibition, 5 min; series mostly up to 57.5 µM
Active and inactive are the calls of the source. Calls come from the whole dose curve; as a rule, active = well fitted curve in the direction sought with a large enough effect; inconclusive = small, poorly fitted or top-dose-only effect, or another doubt; inactive = no such curve, though single readings can be large or run the other way.
Returns: one label drawn from YES = active, NO = inactive

Field: outcome | Entry: `C/C(=C\[C@H](C)C(=O)C[C@H](O)CC1CC(=O)NC(=O)C1)[C@@H]1OC(=O)CCCC/C=C/C[C@@H](O)[C@@H]1C` NO

Field: outcome | Entry: `C/C=C/[C@H]1[C@H]2C(=O)c3c(O)c(C)c(O)c(C)c3[C@]1(C(=O)O)C(=O)C=C2C` NO

Field: outcome | Entry: `C[C@@]12CCC[C@@](C)(C(=O)O)[C@H]1CC[C@@]13C[C@@H](CC[C@H]12)[C@](C)(O)C3` NO

Field: outcome | Entry: O=C1CC(c2ccc(O)cc2)Oc2ccccc21 (stereo not given) YES

Field: outcome | Entry: `O=C1CCC(=O)N(O)CCCCCNC(=O)CCC(=O)N(O)CCCCCNC(=O)CCC(=O)N(O)CCCCCN1` NO

Field: outcome | Entry: `O=Cc1ccc2n1C[C@]1(OC2)O[C@H](CO)[C@@H](O)[C@@H]1O` NO

Field: outcome | Entry: `C/C(=C\[C@H](C)C(=O)/C=C/CC1CC(=O)NC(=O)C1)[C@@H]1OC(=O)/C=C/CC/C=C/C[C@@H](O)[C@@H]1C` NO

Field: outcome | Entry: C=C1C[C@H]2O[C@@H]3[C@@H]4[C@H](CC[C@@](C)(O)[C@@H]42)[C@H](C)COC3(C)[C@@H](OC(=O)CCCCCCC)C[C@H]1O (stereo not given in full) NO

Field: outcome | Entry: `CC(C)=CC[C@H]1C[C@@]2(CC=C(C)C)C(=O)[C@](CC=C(C)C)(C(=O)C(C(=O)c3ccccc3)=C2O)C1(C)C` NO

Field: outcome | Entry: `CO[C@H]1/C=C/CCCCC(=O)O[C@@H](/C(C)=C/[C@H](C)C(=O)C[C@H](O)CC2CC(=O)NC(=O)C2)[C@@H](C)C1` NO

Field: outcome | Entry: CN1CCc2cc3c(c4c2C1(C)C(=O)c1cc(O)ccc1-4)OCO3 (stereo not given) NO

Field: outcome | Entry: `C[C@]12CC[C@]3(C1)[C@H](CC2=O)C[C@@H](OC(=O)c1ccccc1)[C@H]1[C@](C)(C(=O)O)CCC[C@@]13C` NO

Field: outcome | Entry: C=C1CCC2C(C)(C(=O)O)CCC(CC/C(C)=C/C(=O)NC(CCC(N)=O)C(=O)O)[C@@]2(C)C1 (stereo not given in full) NO

Field: outcome | Entry: `C=CC(C)(C)C(=O)[C@@H](C)[C@@H]1CC[C@@](C)(C=C)O1` NO

Field: outcome | Entry: `C/C=C(/C)c1c(Cl)c(OC)c(C)c2c1Oc1c(Cl)c(O)c(Cl)c(C)c1C(=O)O2` NO
